Test system: LXRb homodimer (NR concentration 270 nM)
procedure_details: PBM binding z-score (relative to random genomic background probes); higher = stronger binding; sequences stand for … in GC…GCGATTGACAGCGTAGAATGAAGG
Kindly state PBM binding z-score for each of the entries shown.
Answers are plain numbers.

Here's what some known entries look like.
>>> observed("CAAACTAGGTCATCCAGGACAGTGAATACATTGA")
0.932
>>> observed("GCTAGTTGGTCAGTAAAAGGTTACACACCGGTCG")
-0.0752
>>> observed("GCTATCAGGCCATTTGGGTCACTCAATGACGGGC")
0.109
>>> observed("TCTTGTAGAGCAATAGAGGTTAAGAAAGTGCGCT")
-0.745
>>> observed("CCTACTTGGCCACGAAAGGTCATTGATTCAGTGA")
1.16

Dear colleague, could you please provide PBM binding z-score for the sequences listed below?
1. CGTCCAAGGTCAAGGTCAGTGATAGAGACTCGAA
2. ATCTCTAGGTAAAGTTCAGTGTAAGATCGATAGA
3. CCTGACGGGTCACTCCAGGTTATAGCATCGGAGT
4. ACAGACAGGTGAGTGAAGTTAACTCAGCTGGACG

OUT:
[0.758, 1.1, -0.132, -0.63]

Provide each entry's PBM binding z-score from the list below.
1. CCGAGTAGGTTATGGGGCATACAGGCAACGGTGA
2. CCGACTGGTGCAGAAAGGTTACCATACCATCCGG
3. AGAACGAGGGCTATGAGTTGATAGCACGGGTGGC
4. AGAATGAGGTTTCCAAAGATCAGGGAAACGCTTG
5. CGTCCAAGGTCCAAGGTCAGTGAAGAGATGACGG
6. CCCAGCAGGCCAGGGTCACTCAAGCATTTCGCTT

OUT:
1: -0.226; 2: -0.9; 3: -0.486; 4: -0.489; 5: -0.433; 6: -0.79

----------
Test system: RARg:RXRa (NR concentration 270 nM, RXRa partner concentration 90 nM)
procedure_details: PBM binding z-score (relative to random genomic background probes); higher = stronger binding; sequences stand for … in GC…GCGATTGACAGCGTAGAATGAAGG
Field: PBM binding z-score. Provide a value for each of the sequences that follow.

The following sequences have reported results that may help.
>>> observed("TCTTGTAGATCAGCACGTTAAGAAAGCTGGCCAA")
-0.246
>>> observed("CCAGACAGGTGAGTAGGTAACTCAGCCTCGATTA")
0.196
>>> observed("TAGCGTAGGTCATGGGCCAGTATACCACGCGAAC")
4.61
>>> observed("CCTACTGGGCCAAAGGGCATTGATTCCAATGCTC")
1.06
>>> observed("TCTTTTAGTTGATTAGGGCAACCGAAACAGCGGA")
1.27

Next sequence, please.
IN: GET /values?readout=PBM binding z-score&item= CCTACTGGGCCATTCAGAGGTCTTTGATCATATG
OUT: 0.221

----------
System: LXRa homodimer (NR concentration 270 nM)
procedure_details: PBM binding z-score (relative to random genomic background probes); higher = stronger binding; sequences stand for … in GC…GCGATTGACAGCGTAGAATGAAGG
assay_endpoint: PBM binding z-score
Numbers only.

Take a look at these entries with their results.
>>> observed("CGAACTAGGTCACTGACAGGACAGTGAATAGTAA")
-0.0136
>>> observed("GCGACTGGGGCAACGCAGGTTACCATAAGGTTGG")
-0.468
>>> observed("CGAACTAGGTCATTCAGGACAGTGAATACATTGA")
0.67

I need PBM binding z-score for every entry listed below, if you could help.
1. GGAACGAGGGCAAGTTGATAGCGGAGTTTGATGG
2. ACAGACAGGTGAGTGAAGGTGACTCAGCTGGACG
3. CCTAGTTGGTCAGGAGATCACACACCGGATATGA
4. CTCGAAAGGTCGTGCTCAGTTGAGTATACCAAAC
5. TAGCCGAGGTCATGCGGGCCAGTATAGTGTCGGC
6. GATACAGGGTCAGCTCGAGGCCAGAGTATGGAAA
7. ACGATTAGTTGACTTAGGGCAACCGATACGACGC
8. TAATATAGGTAAAAGGTGAAAGTCGGTGTGGTAA

OUT:
[-0.352, -0.654, 0.478, 0.291, 1.69, -0.199, 0.339, 0.364]

----------
Tested on: RARa homodimer (NR concentration 270 nM)
procedure_details: PBM binding z-score (relative to random genomic background probes); higher = stronger binding; sequences stand for … in GC…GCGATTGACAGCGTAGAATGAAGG
Task for the reader: assign each of the following sequences its reported PBM binding z-score.
Numbers only.

Field: example entries. Status: answers known.
>>> observed("GCTAGTTGGTCAGTAAAAGGTCACACAGCGGTCG")
4.55
>>> observed("TCAAATAGGTAAAAGGTGAAAGTCGGTGTGGTAA")
1.82
>>> observed("CGAGCGAGGGCATGAGTTGATAGCAAATGCCGAT")
-0.541
>>> observed("AGAATGAGGTTATACGTAGATCTGGGAAGAAAGT")
-0.128
>>> observed("AGAATGAGTTTACCAAAGATCAGGGAAACGCTTG")
-0.325

Okay, next one:
IN: I am curious: what PBM binding z-score value has been reported for ACCTCTAGGTAAGACTCAGTTCAGTGAAGAACGC ?
OUT: -0.37

----------
Tested on: PPARg:RXRa 270nM:90nM, anti-RXR (NR concentration 270 nM, RXRa partner concentration 90 nM)
procedure_details: PBM binding z-score (relative to random genomic background probes); higher = stronger binding; sequences stand for … in GC…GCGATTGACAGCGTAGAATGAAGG
I would appreciate it if you labelled entries met when PBM binding z-score is 5 or higher, otherwise not met.

The following sequences have reported results that may help.
>>> qualitative_label("GCAGACAGGTGAAACGCAGGTAACTCAAGGTGGC")
"not met"
>>> qualitative_label("TCTCGGAGGACACGAAAGGTCAGAGCGCGACATC")
"not met"
>>> qualitative_label("GCTATTAGTGGAAAGGGCAACCGAATGATTCTCG")
"not met"
>>> qualitative_label("GCTATTAGTTGAAAGGGCAACCAAATGATTCTCG")
"not met"
>>> qualitative_label("CAATCTAGGTCACCGGAAGGTCAAAGTCCGCATG")
"met"
>>> qualitative_label("AGCCAAAGTTCACTAGGTAACGTAAGATTCAGCT")
"met"
>>> qualitative_label("ATCGAAACGTCGAGGTGAGTATAGAGAAAGGGAA")
"not met"
>>> qualitative_label("GATACAGGGTCAAGGCAAGAGTACGCGTATTGAT")
"met"
>>> qualitative_label("CAAACTAGGTCACCGGAAGGTAAAAGTCCGCATG")
"met"
>>> qualitative_label("CCTATTAGTTGACCATCAGGGCAACCGAAGCTCG")
"not met"

IN: State whether the measured PBM binding z-score reaches 5, counting equality as reaching it, for CCTAGCAGGCCAGGGTCACTCAAGCATTTCGCTT
OUT: not met

IN: // same read-out, input: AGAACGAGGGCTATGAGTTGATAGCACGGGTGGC
OUT: not met

----------
Test system: PPARg:RXRa (NR concentration 180 nM, RXRa partner concentration 90 nM)
procedure_details: PBM binding z-score (relative to random genomic background probes); higher = stronger binding; sequences stand for … in GC…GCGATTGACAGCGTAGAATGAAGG
Provide the reported PBM binding z-score of each item.
Numbers only.

Go through the items and report each one's PBM binding z-score.
1. ATCGAAAGGTCGACGAGGTGTGTATACACCGTTT
2. CCTAATGGGCCAAAAAGGTCATTGATGCCGATAA
3. TCTAGCAGGCCAGAGGGTCACCCAAGAGGTACGG
4. TCGAGTAGGTTACCAATGGGGCATTCACCTTTCT
5. TCACCAAGGTGAAAGGTCGTTGATGCACGCCTTG

OUT:
1. 2.22
2. 2.58
3. 1.73
4. 0.512
5. 7.74

----------
Test system: RARb homodimer (NR concentration 270 nM)
procedure_details: PBM binding z-score (relative to random genomic background probes); higher = stronger binding; sequences stand for … in GC…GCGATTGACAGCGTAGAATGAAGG
assay_endpoint: PBM binding z-score
Numbers only.

Please review the following examples before continuing.
>>> observed("TAGACTAGGTCATTGGGCCAGTATAGTACGCATC")
2.75
>>> observed("TCTCTGAGGACACGAAAGGTCAGAGCTCGACATC")
4.78
>>> observed("CCTACTGGGCCACGCAAGGTCATTGATTCAGTGA")
3.66

For the 5 sequences below, give their PBM binding z-score values.
1. GTTCGGAGGACAAGGTCAGAGCTTTGTCCGTAGA
2. TCTCGGAGGACACGAAGGTCAGAGATTTCCAGAG
3. TCTAGCAGGCCAGAGGGTTACTCAAGAGGTACGG
4. CCTAGTTGGTCAGGATGTCACACACCGGATATGA
5. CCTAGTTGGTCAGGAGGTCAGACACCGGATATGA

OUT:
1: 2.99; 2: 3.84; 3: -0.00314; 4: 1.17; 5: 3.57

The measurements presented in this section are drawn from the supplement of paper PMC6555819.
